# test system: UniProt:Q92731
# Sequence (Q92731 whole entry): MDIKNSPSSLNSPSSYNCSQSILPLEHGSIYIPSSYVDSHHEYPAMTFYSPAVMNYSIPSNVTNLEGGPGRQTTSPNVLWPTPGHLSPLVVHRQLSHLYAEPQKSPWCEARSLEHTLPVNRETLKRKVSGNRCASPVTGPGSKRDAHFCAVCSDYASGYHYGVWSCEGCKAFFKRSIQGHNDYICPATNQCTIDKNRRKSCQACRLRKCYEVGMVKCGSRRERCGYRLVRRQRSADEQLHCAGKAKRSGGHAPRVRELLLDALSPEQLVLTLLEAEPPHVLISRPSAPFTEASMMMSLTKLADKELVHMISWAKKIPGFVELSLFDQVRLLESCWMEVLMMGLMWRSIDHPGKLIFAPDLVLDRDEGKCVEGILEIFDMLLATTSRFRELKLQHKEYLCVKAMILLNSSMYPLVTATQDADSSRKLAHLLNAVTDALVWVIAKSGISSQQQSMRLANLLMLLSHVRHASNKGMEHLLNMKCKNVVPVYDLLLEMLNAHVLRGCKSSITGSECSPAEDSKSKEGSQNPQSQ
# protocol text: Luciferase reporter assay: transactivation of (ERE)-TK-Luc by ERβ in HepG2 cells
# run parameters: (ERE)-TK-Luc, HepG2 cells; read-out: EC50 of activation of ERβ-mediated transcription
measurement type: EC50 (µM)
Just the number in µM, nothing appended.

Req: # get_value(readout= EC50, system= UniProt:Q92731) for C[C@]12CC[C@H](O)CC1=C[C@@H](O)[C@@H]1[C@@H]2CC[C@]2(C)C(=O)CC[C@@H]12 [7HD, 7α-hydroxyDHEA]
Resp: 6.2
